# Test system: human dermal keratinocytes
# measurement notes: MTT assay, cell viability of PMA-treated keratinocytes
# Assay type: cell-based
# experimental setup: niacinamide series, co-treated with PMA, amount (wt. %) differs per example, Control A medium 100%
Record form. Attribute: Cell Viability (%). Fill in for each entry.
Give the number; % is assumed, so skip it.

## Input Give Cell Viability (%) for NC(=O)c1cccnc1 [Example 31, Niacinamide]
## Output 99

## Input Give Cell Viability (%) for NC(=O)c1cccnc1 [Example 30, Niacinamide]
## Output 95

## Input Give Cell Viability (%) for NC(=O)c1cccnc1 [Example 29, Niacinamide]
## Output 97

## Input Give Cell Viability (%) for NC(=O)c1cccnc1 [Example 32, Niacinamide]
## Output 87

## Input Give Cell Viability (%) for CCCCCCCCCCCCCC(=O)O[C@@H]1[C@@H](C)[C@@]2(O)[C@@H](C=C(CO)C[C@]3(O)C(=O)C(C)=C[C@@H]23)[C@@H]2C(C)(C)[C@]12OC(C)=O [Control B, phorbol 12-myristate 13-acetate, reference compound]
## Output 95
